Tested on: TK-10 renal
Assay: NCI tumour cell line growth inhibition, 48 h; in the data active = GI50 below about 0.43 µM; inactive = the rest
In this exercise, the only acceptable responses are 1 (yes) (active), 0 (no) (inactive)

Some entries whose results are on file:
Called result for COC(=O)c1cc2c3c(cc(O)c2[nH]1)N(C(=O)C1Cc2cc(OC)c(OC)c(OC)c2N1)CC3CCl (stereo not drawn) 1 (yes)

Called result for O=c1ccccc(-c2ccc(-c3ccco3)cc2)c1O 0 (no)

Called result for COc1cc2c(=O)n(CCCn3ccnc3)c3c4cc5c(cc4ccc3c2cc1OC)OCO5 0 (no)

Called result for O=C1C(Cl)=C(Nc2cccc(O)c2)C(=O)N1c1cccc(Cl)c1 0 (no)

More entries:
Called result for O=C1c2cccc3cc([N+](=O)[O-])cc(c23)C(=O)N1CCN1CCCC1 0 (no)

Called result for COc1cc(/C=C2\CN(S(=O)(=O)c3ccc(C)cc3)C/C(=C\c3cc(CN4CCCCC4)c(O)c(OC)c3)C2=O)cc(CN2CCCCC2)c1O 0 (no)

Called result for COc1ccccc1N1CCN(C(=O)c2ccc(NS(=O)(=O)c3cccc4cccnc34)cc2)CC1 0 (no)

Called result for N#C/C(=C/C=C/c1ccccc1)S(=O)c1ccccc1 (stereo not drawn) 0 (no)

Called result for COc1c(B(O)O)cccc1-c1nc2c(F)cc3[nH]ncc3c2c2c1CCCC2 1 (yes)

Called result for CC1(C)CCC2(C(=O)O)CC[C@]3(C)C(=CCC4C5(C)CC[C@H](OC6OC(C(=O)O)C(O)C(OC7OC(CO)C(O)C(O)C7O)C6OC6OC(CO)C(O)C(O)C6O)C(C)(C)C5CCC43C)C2C1 (stereo partly drawn) 0 (no)

Called result for Cc1cccc2c1O/C(=C\c1ncc([N+](=O)[O-])n1C)C2=O 1 (yes)

Called result for C/C=C1\C(=O)O[C@@H]2C1C[C@@H]1O[C@H]2[C@H](C)CCC/C(C)=C/CC[C@@]1(C)O (stereo partly drawn) 0 (no)

Called result for O=C(NC1CCN(Cc2ccccc2)CC1)c1cc(C(=O)NC2CCN(Cc3ccccc3)CC2)cc(C(=O)NC2CCN(Cc3ccccc3)CC2)c1 0 (no)

Where these numbers come from: PubChem BioAssay (NCI)
